test: in vitro; format: cell-based; conditions: human, HepG2 cells
readoutName: viability at 48 h, 100 µM (%)

- chemicalString: "CC[C@H](C)[C@H](NC(=O)[C@@H](Cc1ccc(Cl)cc1)NC)C(=O)N[C@@H](CO)C(=O)N[C@H](CCC(N)=O)C(=O)N[C@@H](C(=O)N[C@H](C(=O)N[C@@H](CO)C(=O)N[C@H]1C(=O)N[C@@H](C)C(=O)N[C@@H](CCCCNC(=N)N)C(=O)N[C@@H]([C@@H](C)CC)C(=O)O[C@H]1C)[C@@H](C)CC)[C@@H](C)CC"
  readoutName: "viability at 48 h, 100 µM"
  unitName: "%"
  number: 114
- chemicalString: "CC[C@H](C)[C@H](NC(=O)[C@@H](Cc1ccc(OC)cc1)NC)C(=O)N[C@@H](CO)C(=O)N[C@H](CCC(N)=O)C(=O)N[C@@H](C(=O)N[C@H](C(=O)N[C@@H](CO)C(=O)N[C@H]1C(=O)N[C@@H](C)C(=O)N[C@@H](CCCCNC(=N)N)C(=O)N[C@@H]([C@@H](C)CC)C(=O)O[C@H]1C)[C@@H](C)CC)[C@@H](C)CC"
  readoutName: "viability at 48 h, 100 µM"
  unitName: "%"
  number: 136
- chemicalString: "CC[C@H](C)[C@H](NC(=O)[C@@H](Cc1ccccc1)NC)C(=O)N[C@@H](Cc1cccc2ccccc12)C(=O)N[C@H](CCC(N)=O)C(=O)N[C@@H](C(=O)N[C@H](C(=O)N[C@@H](CO)C(=O)N[C@H]1C(=O)N[C@@H](C)C(=O)N[C@@H](CCCCNC(=N)N)C(=O)N[C@@H]([C@@H](C)CC)C(=O)O[C@H]1C)[C@@H](C)CC)[C@@H](C)CC"
  readoutName: "viability at 48 h, 100 µM"
  unitName: "%"
  number: 113

----------
Parameter MIC C. difficile, tested on C. difficile, listed per item.

- chemicalString: "CC[C@H](C)[C@H](NC(=O)[C@@H](Cc1ccccc1)NC)C(=O)N[C@@H](Cc1c[nH]c2ccccc12)C(=O)N[C@H](CCC(N)=O)C(=O)N[C@@H](C(=O)N[C@H](C(=O)N[C@@H](CO)C(=O)N[C@H]1C(=O)N[C@@H](C)C(=O)N[C@@H](CCCCNC(=N)N)C(=O)N[C@@H]([C@@H](C)CC)C(=O)O[C@H]1C)[C@@H](C)CC)[C@@H](C)CC"
  targetOfAssay: "C. difficile"
  unitName: "µg/mL"
  MIC C. difficile: 0.06
- chemicalString: "CC[C@H](C)[C@H](NC(=O)[C@@H](Cc1ccccc1)NC)C(=O)N[C@@H](CO)C(=O)N[C@H](CCC(N)=O)C(=O)N[C@@H](C(=O)N[C@H](C(=O)N[C@@H](CO)C(=O)N[C@H]1C(=O)N[C@@H](C)C(=O)N[C@@H](CCCCCN)C(=O)N[C@@H]([C@@H](C)CC)C(=O)O[C@H]1C)[C@@H](C)CC)[C@@H](C)CC"
  targetOfAssay: "C. difficile"
  unitName: "µg/mL"
  MIC C. difficile: 0.12

----------
test system: S. epidermidis (5 isolates); type: cell-based, Staphylococcus epidermidis; conditions: 20 h

- compound: "CC[C@H](C)[C@H](NC(=O)[C@@H](Cc1ccc(Cl)cc1)NC)C(=O)N[C@@H](CO)C(=O)N[C@H](CCC(N)=O)C(=O)N[C@@H](C(=O)N[C@H](C(=O)N[C@@H](CO)C(=O)N[C@H]1C(=O)N[C@@H](C)C(=O)N[C@@H](CCCCNC(=N)N)C(=O)N[C@@H]([C@@H](C)CC)C(=O)O[C@H]1C)[C@@H](C)CC)[C@@H](C)CC"
  targetOfAssay: "S. epidermidis (5 isolates)"
  S. epidermidis (MIC90) (5): "≤0.12 µg/mL"
- compound: "CC[C@H](C)[C@H](NC(=O)[C@@H](Cc1ccccc1)NC)C(=O)N[C@@H](CO)C(=O)N[C@H](CCC(N)=O)C(=O)N[C@@H](C(=O)N[C@H](C(=O)N[C@@H](CO)C(=O)N[C@H]1C(=O)N[C@@H](C)C(=O)N[C@@H](Cc2ccc(NC(=N)N)cc2)C(=O)N[C@@H]([C@@H](C)CC)C(=O)O[C@H]1C)[C@@H](C)CC)[C@@H](C)CC"
  targetOfAssay: "S. epidermidis (5 isolates)"
  S. epidermidis (MIC90) (5): "≤0.12 µg/mL"
- compound: "CC[C@H](C)[C@H](NC(=O)[C@@H](Cc1ccc2ccccc2c1)NC)C(=O)N[C@@H](CO)C(=O)N[C@H](CCC(N)=O)C(=O)N[C@@H](C(=O)N[C@H](C(=O)N[C@@H](CO)C(=O)N[C@H]1C(=O)N[C@@H](C)C(=O)N[C@@H](CCCCNC(=N)N)C(=O)N[C@@H]([C@@H](C)CC)C(=O)O[C@H]1C)[C@@H](C)CC)[C@@H](C)CC"
  targetOfAssay: "S. epidermidis (5 isolates)"
  S. epidermidis (MIC90) (5): "≤0.12 µg/mL"
- compound: "CC[C@H](C)[C@H](NC(=O)[C@@H](Cc1ccccc1)NC)C(=O)N[C@@H](CO)C(=O)N[C@H](CCC(N)=O)C(=O)N[C@@H](C(=O)N[C@H](C(=O)N[C@@H](CO)C(=O)N[C@H]1C(=O)N[C@@H](C)C(=O)N[C@@H](CCCNC(=N)N)C(=O)N[C@@H]([C@@H](C)CC)C(=O)O[C@H]1C)[C@@H](C)CC)[C@@H](C)CC [[Arg10]teixobactin, reference compound]"
  targetOfAssay: "S. epidermidis (5 isolates)"
  S. epidermidis (MIC90) (5): "0.5 µg/mL"
- compound: "CC[C@H](C)[C@H](NC(=O)[C@@H](Cc1ccccc1)NC)C(=O)N[C@@H](CO)C(=O)N[C@H](CCC(N)=O)C(=O)N[C@@H](C(=O)N[C@H](C(=O)N[C@@H](CO)C(=O)N[C@H]1C(=O)N[C@@H](C)C(=O)N[C@@H](CCCCN)C(=O)N[C@@H]([C@@H](C)CC)C(=O)O[C@H]1C)[C@@H](C)CC)[C@@H](C)CC [[Lys10]teixobactin, reference compound]"
  targetOfAssay: "S. epidermidis (5 isolates)"
  S. epidermidis (MIC90) (5): "0.5 µg/mL"
- compound: "CC[C@H](C)[C@H](NC(=O)[C@@H](Cc1ccccc1)NC)C(=O)N[C@@H](Cc1cccc2ccccc12)C(=O)N[C@H](CCC(N)=O)C(=O)N[C@@H](C(=O)N[C@H](C(=O)N[C@@H](CO)C(=O)N[C@H]1C(=O)N[C@@H](C)C(=O)N[C@@H](CCCCNC(=N)N)C(=O)N[C@@H]([C@@H](C)CC)C(=O)O[C@H]1C)[C@@H](C)CC)[C@@H](C)CC"
  targetOfAssay: "S. epidermidis (5 isolates)"
  S. epidermidis (MIC90) (5): "0.25 µg/mL"
- compound: "CC[C@H](C)[C@H](NC(=O)[C@@H](Cc1ccc(OC)cc1)NC)C(=O)N[C@@H](CO)C(=O)N[C@H](CCC(N)=O)C(=O)N[C@@H](C(=O)N[C@H](C(=O)N[C@@H](CO)C(=O)N[C@H]1C(=O)N[C@@H](C)C(=O)N[C@@H](CCCCNC(=N)N)C(=O)N[C@@H]([C@@H](C)CC)C(=O)O[C@H]1C)[C@@H](C)CC)[C@@H](C)CC"
  targetOfAssay: "S. epidermidis (5 isolates)"
  S. epidermidis (MIC90) (5): "≤0.12 µg/mL"
- compound: "CC[C@H](C)[C@H](NC(=O)[C@@H](Cc1ccccc1)NC)C(=O)N[C@@H](CO)C(=O)N[C@H](CCC(N)=O)C(=O)N[C@@H](C(=O)N[C@H](C(=O)N[C@@H](CO)C(=O)N[C@H]1C(=O)N[C@@H](C)C(=O)N[C@@H](CCCCNCc2ccccc2)C(=O)N[C@@H]([C@@H](C)CC)C(=O)O[C@H]1C)[C@@H](C)CC)[C@@H](C)CC"
  targetOfAssay: "S. epidermidis (5 isolates)"
  S. epidermidis (MIC90) (5): "≤0.12 µg/mL"
- compound: "CC[C@H](C)[C@H](NC(=O)[C@@H](Cc1ccccc1)NC)C(=O)N[C@@H](CO)C(=O)N[C@H](CCC(N)=O)C(=O)N[C@@H](C(=O)N[C@H](C(=O)N[C@@H](CO)C(=O)N[C@H]1C(=O)N[C@@H](C)C(=O)N[C@@H](CCCCNC(=N)N)C(=O)N[C@@H]([C@@H](C)CC)C(=O)O[C@H]1C)[C@@H](C)CC)[C@@H](C)CC"
  targetOfAssay: "S. epidermidis (5 isolates)"
  S. epidermidis (MIC90) (5): "≤0.12 µg/mL"

----------
Bridge positions count the residues as written; N and C are the ends. Square brackets hold non-standard residues; d marks the D form. Peptide text beside a SMILES is read from it. d(aIle) = CC[C@H](C)[C@@H](N)C(=O)O; dNMeF = CN[C@H](Cc1ccccc1)C(=O)O; hArg = N=C(N)NCCCC[C@H](N)C(=O)O
// MIC C. difficile collected for C. difficile

- compound: "CC[C@H](C)[C@H](NC(=O)[C@@H](Cc1ccccc1)NC)C(=O)N[C@@H](CCCCN)C(=O)N[C@H](CCC(N)=O)C(=O)N[C@@H](C(=O)N[C@H](C(=O)N[C@@H](CO)C(=O)N[C@H]1C(=O)N[C@@H](C)C(=O)N[C@@H](CCCCN)C(=O)N[C@@H]([C@@H](C)CC)C(=O)O[C@H]1C)[C@@H](C)CC)[C@@H](C)CC [Compound 8] (H-[dNMeF]IK[dQ][d(aIle)]IS[dT]AKI; ester 8-C)"
  targetOfAssay: "C. difficile"
  MIC C. difficile: "0.06 µg/mL"
- compound: "CC[C@H](C)[C@H](NC(=O)[C@@H](Cc1ccccc1)NC)C(=O)N[C@@H](CCCCN)C(=O)N[C@H](CCC(N)=O)C(=O)N[C@@H](C(=O)N[C@H](C(=O)N[C@@H](CO)C(=O)N[C@H]1C(=O)N[C@@H](C)C(=O)N[C@@H](CCCCNC(=N)N)C(=O)N[C@@H]([C@@H](C)CC)C(=O)O[C@H]1C)[C@@H](C)CC)[C@@H](C)CC [Compound 1] (H-[dNMeF]IK[dQ][d(aIle)]IS[dT]A[hArg]I; ester 8-C)"
  targetOfAssay: "C. difficile"
  MIC C. difficile: "<0.03 µg/mL"
- compound: "CC[C@H](C)[C@H](NC(=O)[C@@H](Cc1ccc2ccccc2c1)NC)C(=O)N[C@@H](CO)C(=O)N[C@H](CCC(N)=O)C(=O)N[C@@H](C(=O)N[C@H](C(=O)N[C@@H](CO)C(=O)N[C@H]1C(=O)N[C@@H](C)C(=O)N[C@@H](CCCCNC(=N)N)C(=O)N[C@@H]([C@@H](C)CC)C(=O)O[C@H]1C)[C@@H](C)CC)[C@@H](C)CC [Compound 75]"
  targetOfAssay: "C. difficile"
  MIC C. difficile: "0.015 to 0.03 µg/mL"
